# Test system: U251 CNS
# Experiment summary: NCI tumour cell line growth inhibition, 48 h
Field: TGI. Provide a value for each of the compounds that follow.

## Task Field request: TGI | item: N#Cc1ccc(NC(=O)Nc2ccc(Oc3ccc(NC(=O)Nc4ccc(C#N)cc4)cc3)cc2)cc1
## Result 27.8 µM

## Task Item NC(=O)c1ccc(I)c(N)c1 has what recorded TGI?
## Result > 100 µM

## Task What value of measured TGI is listed for COC(=O)Cc1c([C@H]2[C@H](CC(=O)OC)c3ccccc3N2C(C)=O)[nH]c2ccccc12 ?
## Result > 100 µM

## Task I am curious: what TGI value has been reported for O=C1C(Cl)N(c2ccccc2[N+](=O)[O-])C1c1c[nH]c2ccccc12 (stereo unspecified) ?
## Result > 100 µM

## Task What TGI value was documented for this compound, O=c1/c(=C/c2ccco2)sc2nc3ccccc3n12 ?
## Result > 10 µM

## Task May I ask what TGI has been recorded for COc1ccc2c(c1)CC1=C(O2)c2ccc(OC)cc2OC1 ?
## Result 39.9 µM

## Task I have this compound here, CNC(=O)N(CCC#N)[C@H]1CCCC[C@@H]1N(C(=O)NC)c1ccccc1 , and I need its recorded TGI.
## Result > 100 µM

## Task TGI lookup needed for O=c1c(-c2ccc(Cl)cc2)nnc2n(Cc3ccccc3)c3ccccc3n12 , thanks.
## Result 72.7 µM

## Task Sample COC12C=C(C)C(CC1)CC2C(=O)O (stereo unspecified) — what was its TGI?
## Result > 100 µM

## Task // lookup TGI for Cc1ccc(NC(=O)c2cccc(N(C)C)c2)cc1NC(=O)c1ccc(O)cc1
## Result > 100 µM

## Task So what's the measured TGI for this one? Cn1c2ccccc2c2c(-c3ccccc3)[n+]3ccncc3nc21
## Result > 100 µM

###

# System: MCF7 breast
# Experiment summary: NCI tumour cell line growth inhibition, 48 h; in the data active means GI50 below about 0.43 µM; inactive means the rest
Your reply should match one of these outcome classes. true (active), false (inactive)

## Task Please share the test call associated with CC[C@]1(O)C[C@@H]2CN(CCc3c([nH]c4ccccc34)[C@@](C(=O)OC)(c3cc4c(cc3OC)N(C)[C@H]3[C@@](O)(C(=O)OC)[C@H](OC(C)=O)[C@]5(CC)C=CCN6CC[C@]43[C@@H]65)C2)C1 .
## Result true

## Task Record lookup: outcome of this test for COc1cc([N+](=O)[O-])cc2c3c(n(C)c12)[C@@]1(C)CCC2c4ccc(OCc5ccccc5)cc4CCC2C1C3 (some centres not stated) ?
## Result false

## Task Please state the recorded outcome for this compound: Nc1nc(Cl)c2ncn(Cc3ccc(C45CC6CC(CC(C6)C4)C5)c(O)c3)c2n1
## Result false

## Task What is the recorded call for this compound in the test? COc1cc(C2=C(c3ccccc3)COC2=O)cc(OC)c1OC
## Result false

## Task // param item: N#CSc1c[nH]c2cccc(/C=C/C(=O)/C=C(/C=C/c3cccc4[nH]cc(SC#N)c34)OB(F)F)c12 ; yields the recorded call
## Result false

## Task How did this test come out for O=C1CCCCN1CCCCC#Cc1ccccc1C#Cc1ccc([N+](=O)[O-])cc1 ?
## Result false

## Task I'd appreciate the recorded outcome for C[C@@H]1OC(O)[C@@H](F)[C@H](O)[C@@H]1O (some centres not stated) from this test.
## Result false

## Task What did this assay record as the result for O=C1Nc2c(C(F)(F)F)cccc2[C@]1(c1ccc(O)cc1)c1ccc(OC(F)(F)F)cc1 ?
## Result false

## Task Entry Nc1cc(N)c2nc(-c3ccccc3)c(Nc3ccc(Cl)c(Cl)c3)nc2c1 : call = ?
## Result false

## Task GET /call?item= FC(F)(F)c1cccc(Nc2nccc(-c3cnn4nc(-c5ccccc5)ccc34)n2)c1 returns the recorded outcome of this test.
## Result false

## Task Hi, do you know how O=c1[nH]ncc(Br)c1Br came out in this test?
## Result false

## Task Status in this test for Cn1c2ccccc2c2c(-c3ccccc3)[n+]3ccncc3nc21 ?
## Result false

###

# System: EKVX NSCLC
# Experiment summary: NCI tumour cell line growth inhibition, 48 h
I'd be grateful if you could share measured log10 of TGI for these entries.
Friendly reminder: values = log10 of TGI, unit µM.

## Task # input compound: CN(C)CCn1c(=O)c2ccc(NCCCN(C)CCCNc3ccc4c(=O)n(CCN(C)C)c(=O)n5c6ccc([N+](=O)[O-])cc6c(=O)c3c45)c3c(=O)c4cc([N+](=O)[O-])ccc4n(c1=O)c23 ; wanted: its log10 of TGI
## Result 0.12

## Task // query log10 of TGI value for entry COc1ccc2c(c1)CN1C(=N2)CSC1c1ccccc1Cl (stereo not given)
## Result 1.55

## Task log10 of TGI for CCOC(=O)C(NC(=O)CC(C)C)(N1CCN(c2cc3c(cc2F)c(=O)c(C(=O)O)cn3C2CC2)CC1)C(F)(F)F (stereo not given) ?
## Result 1.97

## Task Recorded log10 of TGI of Nc1nc(Cl)c2ncn(Cc3ccc(C45CC6CC(CC(C6)C4)C5)c(O)c3)c2n1 , please.
## Result 1.34

## Task // query log10 of TGI value for entry CC(C)(C)c1cc(/C=C(\C#N)C(=O)NCCO)cc(C(C)(C)C)c1O
## Result 1.85

###

# Test system: HCT-15 colon
# Experiment summary: NCI tumour cell line growth inhibition, 48 h
Measure name: TGI (µM)
Supply the numeric figure in µM, leaving out any unit text.

## Task Could you share which TGI value was measured for O=c1[nH]ncc(Br)c1Br ?
## Result 3.3

## Task Recorded TGI for COc1cc(I)c2c3c1OC1C34CCN(C)C(C2)C4=CC(I)C1(OC)OC (configuration not stated) , please?
## Result 63.4

## Task // returns reported TGI for input O=C1C=C(c2ccccc2)O/C1=C/C(=O)c1ccc(Cl)cc1
## Result 39.5

## Task Need TGI, item CC1=CC(=Nc2ccc(N(CCCl)CCCl)cc2)C=C(C)C1=O
## Result 11

## Task Query: TGI; subject: CCC[CH2][Sn]([CH2]CCC)([O]C(=O)c1cccnc1SC)[O]C(=O)c1cccnc1SC
## Result 2.3

## Task # get_value(readout='TGI', item= Nc1c(C(=O)c2ccc(Cl)cc2)[nH]c(NCc2ccccc2)c1C(=S)Nc1ccccc1 )
## Result 3.36

## Task So what does the record say about TGI for CC[CH2][Sn]([CH2]CC)([O]C(=O)c1cccnc1SC)[O][Sn]([CH2]CC)([CH2]CC)[O]C(=O)c1cccnc1SC ?
## Result 0.998

## Task Query: TGI; subject: O=C(Nc1cccc(O)c1)C(=O)C(C(=O)c1ccccc1F)C1OC(=O)c2ccccc21 (configuration not stated)
## Result 49.2

## Task Would you kindly share the measured TGI for O=[N+]([O-])c1ccc(NC(=S)N=Nc2c(O)[nH]c3ccc(Br)cc23)cc1 ?
## Result 12.9

## Task Request the reported TGI associated with Nc1nc(Cl)c2ncn(Cc3ccc(C45CC6CC(CC(C6)C4)C5)c(O)c3)c2n1
## Result 25.5

## Task Requested field: TGI. Item: N#Cc1cc2c(cc1Cl)Sc1nccn1S2(=O)=O
## Result 3.28

## Task # lookup: TGI of C=CCCCCCCCCC(=O)[O][Sn]([CH2]CCC)([CH2]CCC)[CH2]CCC
## Result 0.348

## Task Consider the compound shown here: O=C(N/N=C/c1cc(Br)cc(Br)c1[O-])c1ccccc1O.O=C(N/N=C/c1cc(Br)cc(Br)c1[O-])c1ccccc1O.[Fe+2] What is its recorded TGI?
## Result 13.8

## Task Reported TGI, compound CC/C(=C(/c1ccc(O)cc1)c1ccc(OCCNC)cc1)c1ccccc1 : ____
## Result 4.07

## Task Returns the measured TGI for the input compound. Input: CC1(CNCc2ccccc2)CC(CCc2ccccc2)N(C(=O)c2ccc([N+](=O)[O-])cc2)C1Cc1ccc(O)cc1 (configuration not stated)
## Result 26.3

## Task Item C=C1C(=O)O[C@@]23C1CC[C@@H](C)C2CC[C@@]1(C)OC31 (some centres not stated) has what recorded TGI?
## Result 30.3

## Task Any idea what its TGI is? The compound is OCc1c[nH]c2ccccc12
## Result 55.3

## Task Requested field: TGI. Item: CC[C@@]1(O)C(=O)OCc2c1cc1n(c2=O)Cc2c-1nc1cc3c(cc1c2CCl)OCO3
## Result 12.3

###

# Tested on: A549 NSCLC
# Experiment summary: NCI tumour cell line growth inhibition, 48 h
Provide the reported log10 of TGI of each item.
Please note: log10 values; quantity TGI; unit µM.

## Task Hi! What's the reported log10 of TGI for O=C(/C(Br)=C/c1ccccc1)c1ccccc1 on A549 NSCLC?
## Result 1.45

## Task Param readout = log10 of TGI; param system = A549 NSCLC; param query = N#Cc1ccc(O)c(C2=NCC(c3cccc(Oc4ccccc4)c3)O2)c1 (stereo not given) ; response: value
## Result 1.07

## Task Provide the documented log10 of TGI with A549 NSCLC as the system for O=C1C2c3[nH]c4ccccc4c3C3CCCCCCC3C2C(=O)N1c1ccccc1 (stereo not given)
## Result 1.40

## Task Any idea what log10 of TGI came out for NC(=O)C(=O)N/N=C(\CC1(O)C(=O)Nc2ccccc21)c1ccc2ccccc2c1 (stereo not given) on A549 NSCLC?
## Result 1.64

## Task Could you share what log10 of TGI was measured for CN(C)CCn1c(=O)c2ccc(NCCCN(C)CCCNc3ccc4c(=O)n(CCN(C)C)c(=O)n5c6ccc([N+](=O)[O-])cc6c(=O)c3c45)c3c(=O)c4cc([N+](=O)[O-])ccc4n(c1=O)c23 , tested on A549 NSCLC?
## Result -0.51

## Task Report log10 of TGI for O=C1c2cc(Cl)ccc2S(=O)(=O)c2c(NCCCNCCO)nc3ccccc3c21 tested on A549 NSCLC.
## Result 1.09

## Task Please provide the recorded log10 of TGI for CC(C)(C)[Si](C)(C)OCC1OC(n2cnc3c(N)ncnc32)C(O[Si](C)(C)C(C)(C)C)C1O[Si](C)(C)C(C)(C)C (stereo not given) , tested on A549 NSCLC.
## Result 1.69

## Task Param readout = log10 of TGI; param system = A549 NSCLC; param query = C=CCCCCCCCCC(=O)[O][Sn]([CH2]CCC)([CH2]CCC)[CH2]CCC ; response: value
## Result -0.49

## Task Value wanted: log10 of TGI (A549 NSCLC) of entry O=C(N/N=C/c1cc(Br)cc(Br)c1[O-])c1ccccc1O.O=C(N/N=C/c1cc(Br)cc(Br)c1[O-])c1ccccc1O.[Fe+2]
## Result 1.47
